# measurement_target: DYRK1A (Homo sapiens)
# Construct: purchased Carna Biosciences, Inc. 04-130
# assay_summary: Inhibition test on activity of DYRK family, mobility shift assay (MSA): DYRK1A
# Type: biochemical
# condition_description: MSA, FITC-labeled DYRKtide peptide, ATP 100 μM; read-out: Inhibitory activity DYRK 1A (IC50 class)
readout_name: IC50

Please review the entries below; each comes with its answer.
Param item = O=C1N[C@H]2CNCCC[C@H]2N1c1nc2c3c(ccc2s1)OCC3 [Example 5] ; retrieve measured IC50.
10 to 100 nM

Please give the measured IC50 for this compound: CC(C)(C)OC(=O)N1CC(N2CC[C@@H]3NC(=O)N(c4nc5c6c(ccc5s4)OCC6)[C@@H]3C2)C1 [Example 82]
10 to 100 nM

# query: IC50 of entry O=C1NC2CCN(CCO)CC2N1c1nc2c3c(ccc2s1)OCC3 (centres unmarked) [Example 13]
10 to 100 nM

Sample O=C1N[C@@H]2CCN(C3CC3)C[C@@H]2N1c1nc2c3c(ccc2s1)OCCO3 (relative stereo) [Example 31] — what was its IC50?
< 10 nM

Item CN1CC[C@@H]2NC(=O)N(c3nc4c5c(ccc4s3)OCC5)[C@@H]2CC1 [Example 67] has what recorded IC50?
100 to 1000 nM

---
Looking for the measured IC50 of CN1C[C@@H]2NC(=O)N(c3nc4c5c(ccc4s3)OCC5)[C@@H]2CC12CC2 [Example 89] , can you help?
100 to 1000 nM

For the compound CN1CC[C@@H]2[C@@H](NC(=O)N2c2nc3c4c(ccc3s2)OCC4)C12CC2 [Example 68] , what IC50 is on record?
100 to 1000 nM

Bench note: what IC50 did O=C1N[C@@H]2CCN(C3CC3)C[C@@H]2N1c1nc2c3c(ccc2s1)OCO3 (single isomer, unassigned) [Example 35] show?
≥ 1000 nM

Recorded IC50 of O=C1N[C@H]2CO[C@H](CF)[C@H]2N1c1nc2c3c(ccc2s1)OCC3 [Example 159] , please.
< 10 nM

For the compound C[C@H]1C[C@@H]2[C@H](CO1)NC(=O)N2c1nc2c3c(ccc2s1)OCO3 [Example 139] , what IC50 is on record?
< 10 nM

====

# measurement_target: DYRK1B (Homo sapiens, UniProt Q9Y463)
# Construct: purchased Carna Biosciences, Inc. 04-131
# Sequence (Q9Y463 whole entry): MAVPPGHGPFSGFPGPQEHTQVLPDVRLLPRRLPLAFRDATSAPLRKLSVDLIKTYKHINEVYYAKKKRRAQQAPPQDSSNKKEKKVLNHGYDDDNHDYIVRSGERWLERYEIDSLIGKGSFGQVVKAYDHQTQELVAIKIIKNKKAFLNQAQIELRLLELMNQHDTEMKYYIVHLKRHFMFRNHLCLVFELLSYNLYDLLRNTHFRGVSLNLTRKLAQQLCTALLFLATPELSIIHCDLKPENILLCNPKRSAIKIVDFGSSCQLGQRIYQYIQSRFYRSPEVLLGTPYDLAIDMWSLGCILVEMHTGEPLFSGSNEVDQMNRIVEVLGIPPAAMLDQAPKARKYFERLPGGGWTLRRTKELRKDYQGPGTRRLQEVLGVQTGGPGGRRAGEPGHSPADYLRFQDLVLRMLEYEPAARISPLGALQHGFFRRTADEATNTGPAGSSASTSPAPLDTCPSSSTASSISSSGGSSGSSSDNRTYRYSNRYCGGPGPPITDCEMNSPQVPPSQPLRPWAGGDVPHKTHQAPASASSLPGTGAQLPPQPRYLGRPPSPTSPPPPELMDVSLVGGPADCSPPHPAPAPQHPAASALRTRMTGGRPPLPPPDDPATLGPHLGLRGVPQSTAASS
# assay_summary: Inhibition test on activity of DYRK family, mobility shift assay (MSA): DYRK1B
# Type: biochemical
# condition_description: MSA, FITC-labeled DYRKtide peptide, ATP 200 μM; read-out: Inhibitory activity DYRK 1B (IC50 class)
# Protocol: [Inhibition Test on Activity of DYRK Family (DYRK1A, DYRK1B, DYRK2, and DYRK3)] The kinase activity was measured by mobility shift assay (MSA) method using QuickScout Screening Assist™ MSA (commercially available kit manufactured by Carna Biosciences, Inc.). […] The heights of the peaks of the “substrate” and the “phosphorylated substrate” were expressed as S and P, respectively, and a blank containing the assay buffer instead of the enzyme solution was also measured. […]
pIC50: −log10 of the molar value.
Reported pIC50 values for a set of molecules

Need pIC50 of `C[C@H]1C[C@@H]2[C@H](CO1)NC(=O)N2c1nc2c3c(ccc2s1)OCC3` , thanks.
> 8.00

What measured pIC50 goes with `C[C@H]1OC[C@@H]2NC(=O)N(c3nc4c5c(ccc4s3)OCC5)[C@@H]21` ?
7.00 to 8.00

Given `CC[C@H]1C[C@@H]2[C@H](CO1)NC(=O)N2c1nc2c3c(ccc2s1)OCC3` , state its recorded pIC50.
> 8.00

pIC50 for CN1CC[C@@H]2NC(=O)N(c3nc4c5c(ccc4s3)OCC5)[C@@H]2C1 (relative stereo) [Example 7] ?
7.00 to 8.00

More entries:
Item under review: `CC[C@H]1C[C@@H]2[C@H](CO1)NC(=O)N2c1nc2c3c(ccc2s1)OCCO3` . Reported pIC50?
> 8.00

Recorded pIC50 for `C[C@H]1NC(=O)N(c2nc3c4c(ccc3s2)OCC4)[C@@H]1CN1CCOCC1` , please?
7.00 to 8.00

What measured pIC50 goes with `O=C1N[C@H]2CO[C@@H](CF)C[C@H]2N1c1nc2c3c(ccc2s1)OCCO3` ?
> 8.00

Source listed as patent US20230365589A1.
